target: OTUB2 (OTUB2A) (Homo sapiens, UniProt Q96DC9); construct: full length residues 1-234, E. coli BL21(DE3)-R3, His tag removed by TEV, construct 27312 Da; set-up: Intact protein LC/MS covalent labelling, fragments in pools of five, 200 uM each, 4 °C; conditions: 24 h, 4 °C, pool of five; 200 µM; covalent
Sequence (Q96DC9 whole entry, the tested form may be a part): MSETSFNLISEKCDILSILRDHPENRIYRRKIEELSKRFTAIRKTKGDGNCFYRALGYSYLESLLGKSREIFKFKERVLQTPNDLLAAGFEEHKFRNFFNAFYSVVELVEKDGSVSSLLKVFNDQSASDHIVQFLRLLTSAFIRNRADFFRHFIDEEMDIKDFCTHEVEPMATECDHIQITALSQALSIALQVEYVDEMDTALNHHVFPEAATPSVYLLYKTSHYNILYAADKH
Below, each entry is listed with its recorded OTUB2.
Format: numeric value only, no unit, no commentary.

Examples with their reported OTUB2 follow.
SMILES REPR | OTUB2
O=C(CCl)Nc1cc(F)cc(F)c1 | 0
NC(=O)c1c(NC(=O)CCl)sc2c1CCC2 | 0

Hi! What's the reported OTUB2 for "CN(Cc1ccc(F)cc1)C(=O)CCl" on OTUB2 (OTUB2A) (Homo sapiens, UniProt Q96DC9)? 0.1

Report OTUB2 for "C=CC(=O)Nc1ccccc1F" tested on OTUB2 (OTUB2A) (Homo sapiens, UniProt Q96DC9). 0

Given the entry "CS(C)(=O)=NC(=O)CCl" , what OTUB2 was observed with OTUB2 (OTUB2A) (Homo sapiens, UniProt Q96DC9)? 0

What value of OTUB2 on OTUB2 (OTUB2A) (Homo sapiens, UniProt Q96DC9) does "Cc1ccc(NC(=O)CCl)cc1Cl" have? 0.46

----------
assay: in vitro; parameters: species or system HB2, HEK293; conditions: human, ccd841 cells
Binary label based on viability at 48 h, 10 µM with cut-off 90%: below gives criterion met, not below gives criterion not met.

COMPOUND | CLASS
O=C(CCl)N1CCN(S(=O)(=O)c2ccccc2F)CC1 [PCM-0102281] | criterion met
Cl.O=C(CCl)N1CCN(Cc2c(F)cccc2Cl)CC1 [PCM-0102137] | criterion met
CC(NC(=O)CCl)c1ccc(Br)cc1 (centres unmarked) [PCM-0102374] | criterion met
COC(=O)C1(NC(=O)CCl)CCCCC1 [PCM-0102734] | criterion not met
Cc1nc(C2(NC(=O)CCl)CCCCC2)no1 [PCM-0102983] | criterion not met

Please check: viability at 48 h, 10 µM for CC1(NC(=O)CCl)CCS(=O)(=O)C1 (centres unmarked) [PCM-0102230] , strictly under 90% or not? criterion not met

Given the entry O=C(CCl)N1CCCC1=O [PCM-0102982] , would its reported viability at 48 h, 10 µM be below 90%? criterion not met

Dear reviewer, please state whether C=CC(=O)NC1CCc2cnn(C(C)C)c2C1 (centres unmarked) [PCM-0102487] has viability at 48 h, 10 µM strictly beneath 90%. criterion not met

Please indicate whether the reported viability at 48 h, 10 µM of O=C(CCl)N1CCN(C(=O)c2cccs2)CC1 [PCM-0102306] is strictly below 90%. criterion met

----------
Listing of entries alongside the reported OTUB2.
biological target: OTUB2 (OTUB2A) (Homo sapiens); construct: full length residues 1-234, E. coli BL21(DE3)-R3, His tag removed by TEV, construct 27312 Da; parameters: Intact protein LC/MS covalent labelling, fragments in pools of five, 200 uM each, 4 °C; details: 24 h, 4 °C, pool of five; 200 µM; covalent
Just the number, please, no unit after it.

MOLECULE | TESTED ON | OBS VALUE
O=C(CCl)NC(=O)NCC1COc2ccccc2O1 (centres unmarked) | OTUB2 (OTUB2A) (Homo sapiens) | 0
CN(C(=O)CCl)C1=CCCC1 | OTUB2 (OTUB2A) (Homo sapiens) | 0
CN(C(=O)CCl)C1CCCc2ccccc21 (centres unmarked) | OTUB2 (OTUB2A) (Homo sapiens) | 0

Dear colleague, I am looking for the recorded OTUB2 of the following molecule: "O=C(CCl)Nc1cc2[nH]c(=O)[nH]c2cc1Br" 0.56

Fill in the blank: the reported OTUB2 of "Cc1oc(NC(=O)CCl)c(C#N)c1C" is ____. 0.45

Name the reported OTUB2 value associated with the molecule "Cc1ccc(CNC(=O)CCl)cc1" 0.63

Given "O=C(CCl)NCc1nc2ccccc2s1" , state its recorded OTUB2. 0.37

Endpoint output: OTUB2 of "COc1ccccc1N1CCN(C(=O)CCl)CC1.Cl" . Value? 0

Query (molecule): "Cc1cccc(CN2CCN(C(=O)CCl)CC2)c1" ; field requested: OTUB2 0.17

Name the recorded OTUB2 for CC(C)(C)n1ncc2c1CCCC2NC(=O)CCl.Cl (centres unmarked) . 0.36

Dear colleague, I am looking for the recorded OTUB2 of the following molecule: C=CC(=O)NC(C)C(=O)N1CCc2ccccc21 (centres unmarked) 0

----------
assay: in vitro; parameters: species or system CCD841, HEK293; details: human, hb2 cells, read-out: HB-2 Cells Viability (%)
MEASURED PARAMETER: viability at 48 h, 10 µM (%)
The answer is to be given in %; state only the numeric part.

COMPOUND | READOUT UNITS | viability at 48 h, 10 µM
O=C(CCl)Nc1cc2c(cc1Cl)C(=O)c1ccccc1C2=O [PCM-0102757] | % | 1.4
O=C(CCl)Nc1ccc(-c2nnc3n2CCCCC3)cc1 [PCM-0102101] | % | 36.7
CS(=O)(=O)N1CCN(C(=O)CCl)CC1 [PCM-0102417] | % | 89.4

Look up viability at 48 h, 10 µM for this compound: CC1CCCC(C)N1C(=O)CCl (stereo not shown) [PCM-0102616] 71

If you can, please state the reported viability at 48 h, 10 µM value of O=C(CCl)N1CCOC2CCCCC21 (stereo not shown) [PCM-0102940] . 93.7

Which viability at 48 h, 10 µM value belongs to C=CC(=O)N1CCC(CS(C)(=O)=O)C1 (stereo not shown) [PCM-0102765] ? 98.4

Data request, read-out viability at 48 h, 10 µM, for O=C(CCl)N1CCc2cc(S(=O)(=O)N3CCCCC3)ccc21 [PCM-0102705] 4.2

Need viability at 48 h, 10 µM, item Cl.O=C(CCl)N1CCN(c2ccc(O)cc2)CC1 [PCM-0102357] 31

Please look up its viability at 48 h, 10 µM: COC(=O)C1CCN(C(=O)CCl)CC1 [PCM-0102978] 100

Suppose we examine the compound O=C(CCl)Nc1nc2ccccc2s1 [PCM-0102698] ; what viability at 48 h, 10 µM value has been reported? 64.2

I have this compound here, Cc1ccc(C(=O)N2CCN(C(=O)CCl)CC2)cc1 [PCM-0102962] , and I need its recorded viability at 48 h, 10 µM. 30.1

# lookup: viability at 48 h, 10 µM of CC(NC(=O)CCl)C(=O)O (stereo not shown) [PCM-0102990] 102

Requested read-out: viability at 48 h, 10 µM. Entry: CC(=O)c1oc2ccccc2c1NC(=O)CCl [PCM-0102918] 42.4

For the compound shown here, O=C(CCl)NC1CCSC1=O (stereo not shown) [PCM-0103062] , give the reported viability at 48 h, 10 µM. 97.6

Data request, read-out viability at 48 h, 10 µM, for O=C(CCl)Nc1ccc2c(c1)OC(F)(F)O2 [PCM-0102738] 30

Quick check: viability at 48 h, 10 µM of O=C(CCl)Nc1cc([N+](=O)[O-])ccc1F [PCM-0102544] ? 1.6

Report viability at 48 h, 10 µM for CC1CN(C(=O)CCl)CCO1 (stereo not shown) [PCM-0102830] please. 101

Give its viability at 48 h, 10 µM value. Item: CC1CN(C(=O)CCl)CC(C)O1 (stereo not shown) [PCM-0102796] 92.9

Bench note: what viability at 48 h, 10 µM did Cc1sc(NC(=O)CCl)c(C#N)c1C [PCM-0102202] show? 32.8

I have this compound here, C=CC(=O)N1CCCN(S(=O)(=O)c2cccc3cnccc23)CC1 [PCM-0102491] , and I need its recorded viability at 48 h, 10 µM. 99.3

Fill in: viability at 48 h, 10 µM of Cc1ccc(NC(=O)CCl)cc1I [PCM-0102577] is ___ 4.6

Which viability at 48 h, 10 µM value belongs to CC(C)(C)C(NC(=O)CCl)c1cccs1 (stereo not shown) [PCM-0102773] ? 86.9

----------
assay: in vitro; design: species or system CCD841, HEK293; settings: human, hb2 cells, read-out: HB-2 Cells Viability (%)
Under this convention, rule met denotes viability at 48 h, 10 µM strictly below 50% and rule not met denotes viability at 48 h, 10 µM at or above 50%.

Some entries whose results are on file:
COMPOUND | CLASS
O=C(CCl)N1CCCC1c1ccc2c(c1)OCCCO2 (centres unmarked) | rule met
O=C(CCl)Nc1ccc(C(F)(F)F)cc1 | rule met

Could you please tell me whether viability at 48 h, 10 µM recorded for "C=CC(=O)N1CCC(Oc2cnc3ccccc3n2)CC1" is less than 50%? rule not met

State whether 50% exceeds viability at 48 h, 10 µM recorded for "CN(Cc1ccc2c(c1)OCCO2)C(=O)CCl" . rule not met

Say whether its viability at 48 h, 10 µM is strictly beneath 50%. Entry: "O=C(CCl)Nc1cc(Cl)ccc1C(=O)O" rule not met

Quick check: does "Cl.O=C(CCl)N1CCN(Cc2ccccc2)CC1" have viability at 48 h, 10 µM under 50%? rule not met

For "O=C(CCl)NC(=O)c1cccc([N+](=O)[O-])c1" , is the recorded viability at 48 h, 10 µM below the cut-off of 50%? rule not met

Lab note: confirm whether the reported viability at 48 h, 10 µM for this compound is below 50%, equality not counting. compound: "Cc1cc(NC(=O)CCl)no1" rule not met

Hi there! Is viability at 48 h, 10 µM for "O=C(CCl)Nc1cccc(C(=O)N2CCSCC2)c1" below 50%, do you know? rule met

Does the reported viability at 48 h, 10 µM of the following compound sit strictly below 50%? "Cc1ccc(NC(=O)CCl)cc1C" rule met

Problem: For the compound "CN(Cc1ccc(Br)cc1)C(=O)CCl" , is viability at 48 h, 10 µM under 50%? rule met

Decide: viability at 48 h, 10 µM of "O=C(CCl)Nc1nnc(CC(F)(F)F)o1" strictly below 50%? rule not met

viability at 48 h, 10 µM strictly < 50% for this compound? "O=C(CCl)NC(=O)c1ccccc1Br" rule not met

In plain terms, does C=CC(=O)N1CCCC1C(=O)Nc1nc2ccccc2s1 (centres unmarked) come in under 50% for viability at 48 h, 10 µM? rule not met

Please indicate whether the reported viability at 48 h, 10 µM of "Cc1ccc(NC(=O)CCl)cc1Br" is strictly below 50%. rule met

In the record for O=C(CCl)N1CCOC(c2ccc(F)cc2)C1 (centres unmarked) , is viability at 48 h, 10 µM less than 50%? rule met

Please let me know if "O=C(CCl)Nc1cc2[nH]c(=O)[nH]c2cc1Br" shows viability at 48 h, 10 µM below 50%. rule met

Consider "Cn1nc(-c2ccc(Cl)cc2)cc1NC(=O)CCl" . Does its viability at 48 h, 10 µM lie strictly below 50%? rule met

viability at 48 h, 10 µM strictly < 50% for this compound? "Cc1ccccc1CNC(=O)CCl" rule not met

# check: viability at 48 h, 10 µM < 50% for "Cc1ccc(NC(=O)CCl)cc1Cl" rule met

I'd appreciate it if you could check whether "CN1C(=O)c2ccc(NC(=O)CCl)cc2C1=O" has viability at 48 h, 10 µM smaller than 50%. rule not met

Dear reviewer, please state whether CC(c1ccccc1)N(C)C(=O)CCl (centres unmarked) has viability at 48 h, 10 µM strictly beneath 50%. rule met

Identify whether the compound C=CC(=O)N1CC(NC(=O)C(F)(F)F)CCC1C(F)(F)F (centres unmarked) records viability at 48 h, 10 µM below 50%. rule not met
